Quick reference: pKi of the listed items.
Molecular target: Histamine H3 receptor (Homo sapiens)
Sequence (Q9Y5N1 whole entry): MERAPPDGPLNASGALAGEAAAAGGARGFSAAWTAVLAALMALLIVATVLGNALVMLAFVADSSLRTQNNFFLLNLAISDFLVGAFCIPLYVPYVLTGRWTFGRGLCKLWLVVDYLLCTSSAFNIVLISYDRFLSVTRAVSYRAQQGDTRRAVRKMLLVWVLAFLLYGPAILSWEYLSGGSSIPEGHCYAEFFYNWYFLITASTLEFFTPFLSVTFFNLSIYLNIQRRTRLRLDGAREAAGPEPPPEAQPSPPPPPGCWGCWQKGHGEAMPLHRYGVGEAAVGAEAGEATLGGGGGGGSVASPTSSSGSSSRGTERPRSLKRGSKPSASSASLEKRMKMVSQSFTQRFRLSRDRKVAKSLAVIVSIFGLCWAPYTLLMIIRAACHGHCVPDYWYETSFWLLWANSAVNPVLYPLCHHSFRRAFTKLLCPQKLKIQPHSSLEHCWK
Assay: Displacement of [3H]N-alpha-methylhistamine from human cloned H3 receptor
Conditions: read-out: Ki
pKi here: minus log base 10 of the concentration, concentration in moles per litre.

Some solved cases for reference:
>  <RECORD_SMILES>
c1cc2c(cc1OCCCN1CCCCC1)N(CC1CCCCC1)CCC2

>  <pKi>
6.73

$$$$
>  <RECORD_SMILES>
CC(C)NC(=O)N1CCCc2cc(OCCCN3CCCCC3)ccc2C1

>  <pKi>
7.77

$$$$
>  <RECORD_SMILES>
CC(C)NC(=O)N1CCc2ccc(OCCCN3CCCCC3)cc2CC1

>  <pKi>
7.37

$$$$
>  <RECORD_SMILES>
CC(C)N1CCc2ccc(OCCCN3CCCCC3)cc2C1

>  <pKi>
9.77

$$$$

Turning now to a further compound:
// field: pKi; key: CCN1CCc2cc(OCCCN3CCCCC3)ccc2C1 ; value = 9.27
